Quick list: IC50 per entry.
Biological target: JAK2 kinase activity on STAT5 in TF1 cells (Homo sapiens)
Sequence (O60674 whole entry): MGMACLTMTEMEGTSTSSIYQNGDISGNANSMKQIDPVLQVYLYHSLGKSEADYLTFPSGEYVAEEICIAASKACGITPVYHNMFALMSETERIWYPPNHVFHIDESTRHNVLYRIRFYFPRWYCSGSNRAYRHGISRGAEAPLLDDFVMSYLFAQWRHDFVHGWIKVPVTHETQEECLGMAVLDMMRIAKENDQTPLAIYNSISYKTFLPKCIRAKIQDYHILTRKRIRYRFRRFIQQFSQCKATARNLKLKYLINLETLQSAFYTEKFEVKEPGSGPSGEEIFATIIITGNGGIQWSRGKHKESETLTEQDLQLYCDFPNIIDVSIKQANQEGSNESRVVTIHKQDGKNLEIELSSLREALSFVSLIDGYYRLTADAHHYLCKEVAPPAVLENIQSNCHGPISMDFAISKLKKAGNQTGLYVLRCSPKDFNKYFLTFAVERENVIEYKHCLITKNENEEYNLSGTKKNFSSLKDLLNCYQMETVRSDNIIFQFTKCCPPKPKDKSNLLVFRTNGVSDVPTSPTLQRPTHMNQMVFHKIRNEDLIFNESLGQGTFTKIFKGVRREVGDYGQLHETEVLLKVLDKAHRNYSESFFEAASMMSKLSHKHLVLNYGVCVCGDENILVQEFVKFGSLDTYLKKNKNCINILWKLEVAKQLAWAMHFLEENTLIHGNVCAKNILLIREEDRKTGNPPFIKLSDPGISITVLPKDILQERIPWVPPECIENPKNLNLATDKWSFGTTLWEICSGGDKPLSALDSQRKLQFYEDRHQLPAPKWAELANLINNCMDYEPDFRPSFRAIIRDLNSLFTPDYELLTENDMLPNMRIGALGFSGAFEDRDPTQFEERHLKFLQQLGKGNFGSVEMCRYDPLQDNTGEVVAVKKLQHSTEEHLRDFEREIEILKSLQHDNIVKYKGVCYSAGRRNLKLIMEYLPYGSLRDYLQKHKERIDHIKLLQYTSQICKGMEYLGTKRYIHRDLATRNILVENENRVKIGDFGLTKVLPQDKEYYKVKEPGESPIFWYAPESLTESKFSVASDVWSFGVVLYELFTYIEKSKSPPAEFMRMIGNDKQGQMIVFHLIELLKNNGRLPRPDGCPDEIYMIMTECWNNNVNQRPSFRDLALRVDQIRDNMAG
Experiment: pSTAT5 cell assay (MSD; TF1 cells, 30 ng/mL IL-3 stimulation)
Settings: 30 ng/mL IL-3, 15 minutes

>  <Molecule>
C[C@@H]1CN(c2ccnn3cc(-c4ccc(N(C)C)nc4)cc23)C(=O)[C@]1(C#N)C1CC1

>  <Recorded Result>
1 to 5 µM

$$$$
>  <Molecule>
Cc1c(-c2cn3ncc(F)c3c(N3C[C@@H](C)[C@@](C#N)(C4CC4)C3=O)n2)cnn1C

>  <Recorded Result>
> 10 µM

$$$$
>  <Molecule>
C[C@@H]1CN(c2ccnc3[nH]c(-c4cnn(C)c4)nc23)C(=O)[C@]1(C#N)C1CC1

>  <Recorded Result>
5 to 10 µM

$$$$
>  <Molecule>
C[C@@H]1CN(c2ccnn3cc(-c4cnn(C5CCCC5)c4)cc23)C(=O)[C@]1(C#N)C1CC1

>  <Recorded Result>
5 to 10 µM

$$$$

molecule `Cc1cc(-n2nc(N3C[C@@H](C)[C@@](C#N)(C4CC4)C3=O)c3ccncc32)ccn1` , IC50 observed: > 10 µM

molecule `C[C@@H]1CN(c2ccnn3cc(-c4cnn(C5CC6(COC6)C5)c4)cc23)C(=O)[C@]1(C#N)C1CC1` , IC50 observed: 0.1 to 1 µM

###

Biological target: human JAK3 kinase domain (JH1) (Homo sapiens, UniProt P52333)
Construct: recombinantly generated catalytic kinase (also known as JH1) domain of human JAK1, JAK2, JAK3 and TYK2
Sequence (P52333 822-1111 limits assumed): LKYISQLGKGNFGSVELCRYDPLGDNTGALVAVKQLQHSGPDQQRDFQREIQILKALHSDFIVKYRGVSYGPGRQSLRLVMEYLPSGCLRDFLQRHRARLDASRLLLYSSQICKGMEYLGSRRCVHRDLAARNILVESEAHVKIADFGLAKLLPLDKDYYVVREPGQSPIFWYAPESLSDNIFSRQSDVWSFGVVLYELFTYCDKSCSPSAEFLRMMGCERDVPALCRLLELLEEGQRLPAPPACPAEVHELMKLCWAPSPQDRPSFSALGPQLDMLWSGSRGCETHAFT
Assay: JH1 biochemical assay for JAK3 (ADP-Glo kinase assay, recombinant JH1 catalytic domain, JAK3-974 peptide, 4 μM ATP)
Conditions: JH1 kinase domain, ADP-Glo
pIC50: −log10 of the molar value. Where a name gives a salt, the structure may show the parent alone.
Quick list: pIC50 per entry.

Please review the following examples before continuing.
>  <Compound>
N#C[C@@]1(C2CC2)CCN(c2ccnn3cc(-c4cnn(C(F)F)c4)cc23)C1=O [Example 10]

>  <Target>
human JAK3 kinase domain (JH1) (Homo sapiens, UniProt P52333)

>  <pIC50>
6.00 to 7.00

$$$$
>  <Compound>
C[C@@H]1CN(c2nc(-c3cnn(C4CC4(F)F)c3)cn3nccc23)C(=O)[C@]1(C#N)C1CC1 (some centres unmarked) [Example 198]

>  <Target>
human JAK3 kinase domain (JH1) (Homo sapiens, UniProt P52333)

>  <pIC50>
> 7.00

$$$$

compound Cc1cc(-c2cc3c(N4C[C@@H](C)[C@@](C#N)(C5CC5)C4=O)ccnn3c2)ncc1C#N [Example 144, trifluoroacetate] , pIC50 observed: 5.30 to 6.00

compound Cn1cc(-c2cc3c(N4C[C@H](C(F)F)[C@@](C#N)(C5CC5)C4=O)ccnn3c2)cn1 (racemic) [Example 152] , pIC50 observed: 5.30 to 6.00

compound C[C@@H]1CN(c2ccnn3cc(-c4cc[nH]n4)cc23)C(=O)[C@]1(C#N)C1CC1 [Example 66, trifluoroacetate] , pIC50 observed: 6.00 to 7.00

compound C[C@@H]1CN(c2ccnn3cc(-c4ccc(C#N)nc4)cc23)C(=O)[C@]1(C#N)C1CC1 [Example 86, trifluoroacetate] , pIC50 observed: 6.00 to 7.00

compound C[C@@H]1CN(c2ccnn3cc(-c4ccc(S(C)(=O)=O)nc4)cc23)C(=O)[C@]1(C#N)C1CC1 [Example 52] , pIC50 observed: 6.00 to 7.00

compound C[C@H]1CN(c2ccnn3cc(-c4cnn(C)c4)cc23)C(=O)[C@@]1(C#N)C1CC1 [Example 29] , pIC50 observed: < 5.00

compound Cn1cc(-c2cc3c(N4CC[C@](C#N)(C5COC5)C4=O)ccnn3c2)cn1 (single isomer, unassigned) [Example 44] , pIC50 observed: < 5.00

compound C[C@@H]1CN(c2ccnn3cc(-c4nccc(C(F)(F)F)n4)cc23)C(=O)[C@]1(C#N)C1CC1 [Example 120, trifluoroacetate] , pIC50 observed: 5.30 to 6.00

compound C[C@@H]1CN(c2ccnn3cc(-c4ccc(N(C)C(=O)OC(C)(C)C)nc4)cc23)C(=O)[C@]1(C#N)C1CC1 [Example 95] , pIC50 observed: 6.00 to 7.00

compound C[C@@H]1CN(c2nc(-c3cnn(C)c3)cn3nccc23)C(=O)[C@]1(C#N)C1CC1 [Example 184] , pIC50 observed: > 7.00

compound C[C@@H]1CN(c2nc(-c3cnn(C)c3)cn3ncc(Cl)c23)C(=O)[C@]1(C#N)C1CC1 [Example 206] , pIC50 observed: 6.00 to 7.00

compound Cc1nc(-c2cc3c(N4C[C@@H](C)[C@@](C#N)(C5CC5)C4=O)ccnn3c2)ccc1F [Example 147, trifluoroacetate] , pIC50 observed: 6.00 to 7.00

###

Molecular target: human JAK1 kinase domain (JH1) (Homo sapiens)
Construct: recombinantly generated catalytic kinase (also known as JH1) domain of human JAK1, JAK2, JAK3 and TYK2
Sequence (P23458 875-1153 limits assumed): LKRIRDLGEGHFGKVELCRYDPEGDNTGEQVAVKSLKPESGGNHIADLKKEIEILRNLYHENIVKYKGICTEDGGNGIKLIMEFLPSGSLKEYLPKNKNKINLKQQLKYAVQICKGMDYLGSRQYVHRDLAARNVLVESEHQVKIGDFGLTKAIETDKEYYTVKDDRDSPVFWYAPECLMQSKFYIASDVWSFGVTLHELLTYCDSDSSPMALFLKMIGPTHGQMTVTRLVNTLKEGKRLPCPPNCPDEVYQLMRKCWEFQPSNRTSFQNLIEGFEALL
Assay: JH1 biochemical assay for JAK1 (ADP-Glo kinase assay, recombinant JH1 catalytic domain, JAK3-342 peptide, 35 μM ATP)
Settings: JAK1 JH1, ADP-Glo
Where a name gives a salt, the structure may show the parent alone.
Quick list: IC50 per entry.

Please review the following examples before continuing.
>  <Molecule>
Cc1cnn(-c2cc3nccc(N4C[C@@H](C)[C@@](C#N)(C5CC5)C4=O)c3o2)c1

>  <IC50>
1 to 5 µM

$$$$
>  <Molecule>
C[C@@H]1CN(c2nc(-c3cncnc3)cn3nccc23)C(=O)[C@]1(C#N)C1CC1 [Example 265, trifluoroacetate]

>  <IC50>
1 to 5 µM

$$$$
>  <Molecule>
Cc1cnn(-c2cc3c(N4C[C@@H](C)[C@@](C#N)(C5CC5)C4=O)ccnn3c2)c1

>  <IC50>
0.1 to 1 µM

$$$$
>  <Molecule>
C[C@@H]1CN(c2ccnn3cc(-c4cnn([C@H]5C[C@H](C#N)C5)c4)cc23)C(=O)[C@]1(C#N)C1CC1

>  <IC50>
< 0.1 µM

$$$$
>  <Molecule>
C[C@@H]1CN(c2ccnn3cc(-c4cnn(C5CC6(COC6)C5)c4)cc23)C(=O)[C@]1(C#N)C1CC1

>  <IC50>
< 0.1 µM

$$$$

molecule `C[C@@H]1CN(c2ncnc3cc(-c4cnn(C)c4)sc23)C(=O)[C@]1(C#N)C1CC1` , IC50 observed: > 10 µM

molecule `CC(C)n1cc(-c2cc3nccc(N4C[C@@H](C)[C@@](C#N)(C5CC5)C4=O)c3o2)cn1` , IC50 observed: < 0.1 µM

###

Molecular target: human JAK2 kinase domain (JH1) (Homo sapiens, UniProt O60674)
Construct: recombinantly generated catalytic kinase (also known as JH1) domain of human JAK1, JAK2, JAK3 and TYK2
Sequence (O60674 849-1124 limits assumed): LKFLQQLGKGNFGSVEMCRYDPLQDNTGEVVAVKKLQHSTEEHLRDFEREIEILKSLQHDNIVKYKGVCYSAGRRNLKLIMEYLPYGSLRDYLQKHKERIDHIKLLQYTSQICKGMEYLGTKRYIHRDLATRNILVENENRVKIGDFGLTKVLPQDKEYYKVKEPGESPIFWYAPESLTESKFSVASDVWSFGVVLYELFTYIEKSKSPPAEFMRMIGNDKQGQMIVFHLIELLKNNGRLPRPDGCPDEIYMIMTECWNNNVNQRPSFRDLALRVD
Test: JH1 biochemical assay for JAK2 (ADP-Glo kinase assay, recombinant JH1 catalytic domain, JAK3-974 peptide, 15 μM ATP)
Conditions: JAK2 JH1, ADP-Glo
Description: Compounds of the disclosure were assessed for their ability to inhibit TYK2, JAK1, JAK2, and JAK3 activity. The inhibitory properties of the compounds of the disclosure described herein can be evidenced by testing in any one of the following protocols. The kinase activity of recombinantly generated catalytic kinase (also known as JH1) domain of human JAK1, JAK2, JAK3 and TYK2 were evaluated in a plate-based assay using the ADP-Glo™ Kinase Assay platform. […]
pIC50: −log10 of the molar value. Counter-ions that a name gives are not always drawn.
Quick list: pIC50 per entry.

>  <Compound>
C[C@@H]1CN(c2cc(-c3cnn(C)c3)cn3nccc23)C(=O)[C@]1(C#N)C1CC1 [Example 271]

>  <pIC50>
5.30 to 6.00

$$$$
>  <Compound>
Cc1ccc(-n2nc(N3C[C@@H](C)[C@@](C#N)(C4CC4)C3=O)c3ccncc32)cn1 [Example 282]

>  <pIC50>
5.30 to 6.00

$$$$
>  <Compound>
C[C@@H]1CN(c2nc(-c3cccnc3F)cn3nccc23)C(=O)[C@]1(C#N)C1CC1 [Example 226, trifluoroacetate]

>  <pIC50>
< 5.00

$$$$
>  <Compound>
CC(C)[C@@]1(C#N)C(=O)N(c2nc(-c3cnn(C)c3)cn3ncc(F)c23)C[C@H]1C [Example 310]

>  <pIC50>
6.00 to 7.00

$$$$

Response field pIC50 (human JAK2 kinase domain (JH1) (Homo sapiens, UniProt O60674)) for item Cc1cnn(-c2cc3c(N4C[C@@H](C)[C@@](C#N)(C5CC5)C4=O)ccnn3c2)c1 [Example 333] : 6.00 to 7.00

Response field pIC50 (human JAK2 kinase domain (JH1) (Homo sapiens, UniProt O60674)) for item C[C@@H]1CN(c2nc(-c3cnn(C4COC4)c3)cn3ncc(F)c23)C(=O)[C@]1(C#N)C1CC1 [Example 291] : > 7.00
